B1: Ribonuclease HII, O74035 (parent)
chain: MKIAGIDEAGRGPVIGPMVIAAVVVDENSLPKLEELKVRDSKKLTPKRREKLFNEILGVLDDYVILELPPDVIGSREGTLNEFEVENFAKALNSLKVKPDVIYADAADVDEERFARELGERLNFEAEVVAKHKADDIFPVVSAASILAKVTRDRAVEKLKEEYGEIGSGYPSDPRTRAFLENYYREHGEFPPIVRKGWKTLKKIAEKVESEKKAEERQATLDRYFRKV

# Variants of: B1
# experimentalConditions: Thermococcus kodakarensis (strain ATCC BAA-918 / JCM 12380 / KOD1); pH 9; 50 °C; GdnHCl; CD; Tris-HCl 20 mM; reversible: Yes; structure 1IO2; whole UniProt chain shown
Listed below: denaturant midpoint (higher = more stable) values for each entry.
Output spec: scalar in M, unitless text.

Worked cases, denaturant midpoint (higher = more stable) given:
The variant listed as E8Q has a reported denaturant midpoint (higher = more stable) of 1.97

The variant listed as D135A has a reported denaturant midpoint (higher = more stable) of 2.37

The variant listed as E8A has a reported denaturant midpoint (higher = more stable) of 2.39

The variant listed as D105A has a reported denaturant midpoint (higher = more stable) of 2.17

Continuing:
The variant listed as D7N has a reported denaturant midpoint (higher = more stable) of 2.18
